The reported measurements were obtained from ChEMBL document CHEMBL3085649.

TEST DESCRIPTION: Inhibition of Enterococcus fecalis thymidylate synthase using MTHF and dUMP as substrates
Parameters: species or system Enterococcus faecalis
The compounds listed here are annotated with their Ki.

- CHEMICAL SMILES: "O=C(Oc1ccc2c3c(cccc13)C(=O)O2)c1ccc([N+](=O)[O-])cc1"
  Ki (µM): 27
- CHEMICAL SMILES: "CCOC(=O)Oc1ccc2c3c(cccc13)C(=O)O2"
  Ki (µM): 37
- CHEMICAL SMILES: "O=C(Oc1ccc2c3c(cccc13)C(=O)O2)c1ccco1"
  Ki (µM): 20
- CHEMICAL SMILES: "C=CC(=O)Oc1ccc2c3c(cccc13)C(=O)O2"
  Ki (µM): 41
- CHEMICAL SMILES: "O=C(Oc1ccc2c3c(cccc13)C(=O)O2)c1cccc(C(F)(F)F)c1"
  Ki (µM): 41
- CHEMICAL SMILES: "N#Cc1cccc(C(=O)Oc2ccc3c4c(cccc24)C(=O)O3)c1"
  Ki (µM): 14

====

Entries and their measured pKi follow.
Target protein (sequence): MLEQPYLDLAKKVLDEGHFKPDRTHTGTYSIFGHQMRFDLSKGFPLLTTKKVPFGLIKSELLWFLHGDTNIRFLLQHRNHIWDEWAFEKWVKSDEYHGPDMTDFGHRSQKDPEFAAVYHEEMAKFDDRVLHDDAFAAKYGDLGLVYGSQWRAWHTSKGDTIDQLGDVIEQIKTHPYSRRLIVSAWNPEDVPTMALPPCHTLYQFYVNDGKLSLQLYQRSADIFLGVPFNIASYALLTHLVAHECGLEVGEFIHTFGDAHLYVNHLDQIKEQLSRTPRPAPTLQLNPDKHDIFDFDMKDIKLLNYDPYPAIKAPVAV
pKi: −log10 of the molar value.

- CHEMICAL SMILES: "CC(C)COC(=O)Oc1ccc2c3c(cccc13)C(=O)O2"
  pKi: 5.05
- CHEMICAL SMILES: "O=C(Oc1ccc2c3c(cccc13)C(=O)O2)c1cccc(C(F)(F)F)c1"
  pKi: 4.48
- CHEMICAL SMILES: "N#Cc1cccc(C(=O)Oc2ccc3c4c(cccc24)C(=O)O3)c1"
  pKi: 6.41

====

Parameter 'readout' = pKi; parameter 'system' = Thymidylate synthase (Pneumocystis carinii, UniProt P13100).
Sequence (P13100 whole entry): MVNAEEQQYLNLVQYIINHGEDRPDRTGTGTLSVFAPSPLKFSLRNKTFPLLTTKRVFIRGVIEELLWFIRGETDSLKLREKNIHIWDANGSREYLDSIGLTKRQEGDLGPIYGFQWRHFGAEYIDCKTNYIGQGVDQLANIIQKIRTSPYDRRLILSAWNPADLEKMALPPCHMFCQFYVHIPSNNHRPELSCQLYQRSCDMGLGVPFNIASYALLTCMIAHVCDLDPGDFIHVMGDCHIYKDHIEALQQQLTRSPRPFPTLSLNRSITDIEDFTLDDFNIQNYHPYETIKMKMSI
pKi: −log10 of the molar value.
MEASUREMENT KIND: pKi

- CHEMICAL SMILES: "C=CC(=O)Oc1ccc2c3c(cccc13)C(=O)O2"
  MEASUREMENT KIND: "pKi"
  OBSERVED: 4.72
- CHEMICAL SMILES: "O=C(Oc1ccc2c3c(cccc13)C(=O)O2)c1ccc([N+](=O)[O-])cc1"
  MEASUREMENT KIND: "pKi"
  OBSERVED: 5.46

====

In this section we review reported pKi values for a set of molecules.
TEST DESCRIPTION: Inhibition of Escherichia coli thymidylate synthase using MTHF and dUMP as substrates
pKi: −log10 of the molar value.
MEASUREMENT KIND: pKi

- CHEMICAL SMILES: "CCOC(=O)Oc1ccc2c3c(cccc13)C(=O)O2"
  OBSERVED: 4.17
- CHEMICAL SMILES: "N#Cc1cccc(C(=O)Oc2ccc3c4c(cccc24)C(=O)O3)c1"
  OBSERVED: 5.40
- CHEMICAL SMILES: "O=C1Oc2ccc(OC(=O)C3CCCCC3)c3cccc1c23"
  OBSERVED: 4.18
- CHEMICAL SMILES: "O=C(Oc1ccc2c3c(cccc13)C(=O)O2)c1ccc([N+](=O)[O-])cc1"
  OBSERVED: 5.22
